Target: Mannose-6-phosphate isomerase (Homo sapiens)
Sequence (P34949 whole entry): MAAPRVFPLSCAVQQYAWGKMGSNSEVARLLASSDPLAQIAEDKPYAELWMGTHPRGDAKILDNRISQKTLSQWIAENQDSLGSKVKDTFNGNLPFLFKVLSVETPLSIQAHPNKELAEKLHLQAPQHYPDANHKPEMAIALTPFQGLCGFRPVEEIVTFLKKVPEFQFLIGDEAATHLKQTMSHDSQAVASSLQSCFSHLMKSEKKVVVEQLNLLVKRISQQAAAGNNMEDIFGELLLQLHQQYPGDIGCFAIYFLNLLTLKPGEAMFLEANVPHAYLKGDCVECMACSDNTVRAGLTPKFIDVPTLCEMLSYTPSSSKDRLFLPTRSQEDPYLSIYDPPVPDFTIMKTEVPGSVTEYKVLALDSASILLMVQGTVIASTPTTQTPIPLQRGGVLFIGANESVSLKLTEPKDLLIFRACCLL
Experiment: MPI inhibition at elevated mannose 6-phosphate – biochemical, fluorescence intensity, high mannose 6-phosphate, primary screen (AID 1220)
Activity calls are given as the source filed them. Cut-off read from the data, not from the text of the source: actives have a measured IC50 and inactives only a lower limit.

{"columns": ["Molecule", "IC50"],
 "data": [
  ["COc1ccc(NC(=O)CSc2nc3c(c(-c4cccs4)c2C#N)CN(C)CC3)cc1OC", "> 50 µM (not active)"],
  ["COc1ccc(C(=O)C[N+]2(C)CCOCC2)cc1", "> 50 µM (not active)"],
  ["Cc1ccc(NCc2ccc(O)c3ncccc23)cc1C", "> 50 µM (not active)"],
  ["COc1cc(NC(=S)Nc2cccnc2)cc(OC)c1", "> 50 µM (not active)"],
  ["CCO/C(O)=C(/C)C1=NC(C)(C)Cc2ccccc21", "37.9 µM (active)"],
  ["CN1c2ccccc2C(C)(C)C12C=Nc1c(ccc3ccccc13)O2 (stereo unspecified)", "> 50 µM (not active)"]
]}
